# target-of-assay: human recombinant HDAC6 (Homo sapiens)
# assay-overview: HDAC6 enzyme activity inhibition test (HDAC Fluorometric Drug Discovery Kit)
# applied-conditions: human recombinant HDAC6; same protocol as HDAC1
pIC50: −log10 of the molar value.
measure-name: pIC50

As a guide, the following entries are already answered.
Fc1cc(-c2nnc(C(F)F)o2)cnc1Cn1nc(-c2cccs2)oc1=S = 7.08
FC(F)c1nnc(-c2ccc(Cn3nc(-c4ccccn4)oc3=S)nc2)o1 = 7.37

a = CCN(CC)Cc1ccc(-c2nn(Cc3ncc(-c4nnc(C(F)F)o4)cc3F)c(=S)o2)s1
b = O=c1oc(-c2ccc3cccnc3c2)nn1Cc1ccc(-c2nnc(C(F)F)o2)cn1
c = FC(F)c1nnc(-c2ccc(Cn3nc(-c4ccc(CN5CCCC5)cc4)oc3=S)nc2)o1
Asked: List the 3 entries from lowest pIC50 to highest pIC50 value. A complete answer lists every label in the requested sequence.
Given back: a, b, c
(a: 6.96, b: 7.34, c: 7.76)

1 = FC(F)c1nnc(-c2ccc(Cn3nc(-c4ccc(CN5CC[C@@H](F)C5)s4)oc3=S)nc2)o1
2 = FC(F)c1nnc(-c2ccc(Cn3nc(-c4ccc(CN5CC[C@@H](F)C5)cc4)oc3=S)nc2)o1
3 = O=c1oc(-c2ccc3cc[nH]c3c2)nn1Cc1ccc(-c2nnc(C(F)F)o2)cn1
Asked: List the 3 entries from lowest pIC50 to highest pIC50 value. A complete answer lists every label in the requested sequence.
Given back: 1, 2, 3
(1: 6.99, 2: 7.24, 3: 7.48)

P = FC(F)c1nnc(-c2ccc(Cn3nc(-c4cccs4)oc3=S)nc2)o1
Q = CC(C)N1CCN(c2cccc(-c3nn(Cc4ncc(-c5nnc(C(F)F)o5)cc4F)c(=S)o3)n2)CC1
Asked: Lab notebook, comparison: P versus Q , higher pIC50 goes to which? When you have decided, please share the label of that item.
Given back: Q

====

# target-of-assay: human recombinant HDAC6 (Homo sapiens)
# Construct: purchased Calbiochem 382180
# Sequence (Q9UBN7 1-1215): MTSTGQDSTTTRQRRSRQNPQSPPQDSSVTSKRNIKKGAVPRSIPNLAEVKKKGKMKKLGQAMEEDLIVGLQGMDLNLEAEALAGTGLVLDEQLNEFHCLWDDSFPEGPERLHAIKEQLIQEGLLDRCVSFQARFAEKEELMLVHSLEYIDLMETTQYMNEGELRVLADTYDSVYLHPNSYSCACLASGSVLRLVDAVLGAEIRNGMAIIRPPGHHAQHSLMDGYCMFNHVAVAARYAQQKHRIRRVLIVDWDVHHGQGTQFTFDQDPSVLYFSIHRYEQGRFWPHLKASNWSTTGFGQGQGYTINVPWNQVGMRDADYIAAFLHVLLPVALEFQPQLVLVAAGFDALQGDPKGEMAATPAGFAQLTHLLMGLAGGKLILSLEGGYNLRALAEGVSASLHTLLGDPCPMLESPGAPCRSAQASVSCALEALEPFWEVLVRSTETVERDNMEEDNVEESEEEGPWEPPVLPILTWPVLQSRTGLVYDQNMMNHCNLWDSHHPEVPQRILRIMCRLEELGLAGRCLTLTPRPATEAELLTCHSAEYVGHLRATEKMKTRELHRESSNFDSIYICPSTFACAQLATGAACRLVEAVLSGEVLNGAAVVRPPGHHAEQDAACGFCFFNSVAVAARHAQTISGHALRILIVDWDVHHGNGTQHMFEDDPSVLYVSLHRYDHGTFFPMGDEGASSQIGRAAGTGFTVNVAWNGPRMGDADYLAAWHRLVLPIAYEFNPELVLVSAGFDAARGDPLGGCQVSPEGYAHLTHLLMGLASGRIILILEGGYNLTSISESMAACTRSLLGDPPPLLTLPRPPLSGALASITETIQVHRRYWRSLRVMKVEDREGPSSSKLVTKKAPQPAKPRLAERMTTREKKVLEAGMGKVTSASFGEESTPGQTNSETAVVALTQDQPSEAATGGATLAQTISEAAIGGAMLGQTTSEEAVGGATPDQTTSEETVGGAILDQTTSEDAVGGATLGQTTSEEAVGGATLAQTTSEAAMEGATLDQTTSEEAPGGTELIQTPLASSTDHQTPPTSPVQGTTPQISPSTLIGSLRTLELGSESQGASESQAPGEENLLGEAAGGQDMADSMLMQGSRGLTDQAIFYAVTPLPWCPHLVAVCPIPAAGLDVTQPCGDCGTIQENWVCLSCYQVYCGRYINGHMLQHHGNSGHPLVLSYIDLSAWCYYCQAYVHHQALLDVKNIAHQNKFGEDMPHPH
# assay-overview: HDAC6 enzyme activity inhibition test (HDAC Fluorometric Drug Discovery Kit)
# Format: biochemical
# applied-conditions: HDAC6 over HDAC1
measure-name: HDAC6 selectivity (fold)

As a guide, the following entries are already answered.
O=c1oc(-c2ccccc2F)nn1Cc1ccc(-c2nnc(C(F)F)o2)cn1 = 524
FC(F)c1nnc(-c2ccc(Cn3nc(-c4ccc(CN5CCCCC5)cc4)oc3=S)nc2)o1 = 1672

I = FC(F)c1nnc(-c2ccc(Cn3nc(-c4csc(CN5CCC5)c4)oc3=S)nc2)o1
II = CCN1CCN(c2cccc(-c3nn(Cc4ccc(-c5nnc(C(F)F)o5)cn4)c(=S)o3)n2)CC1
Asked: // returns I or II , whichever has the lower HDAC6 selectivity (fold) When you have decided, please share the label of that item.
Given back: I
(I: 680 fold, II: 2049 fold)
